# Measured On: CSNK1E (human)
# Assay Comment: KINOMEscan competition binding
# Assay Conditions: compound 10.0 µM
Property Label: kinase still bound, per cent of control
Entry format: amount then unit.

Output measured kinase still bound, per cent of control for this item: O=C(O)c1ccc(Nc2ncc3c(n2)-c2ccc(Cl)cc2C(c2c(F)cccc2F)=NC3)cc1 100%

Output measured kinase still bound, per cent of control for this item: CN(C)C/C=C/C(=O)Nc1cccc(Nc2ncc3c(n2)N(C)c2ccccc2C(=O)N3C)c1 75%

Output measured kinase still bound, per cent of control for this item: COc1cc(N2CCN(C)CC2)ccc1Nc1nc(N)c(C(=O)c2c(Cl)cccc2Cl)s1 56%

New cases:
Output measured kinase still bound, per cent of control for this item: COc1cc(C(=O)NC2CCN(C)CC2)ccc1Nc1ncc2c(n1)N(C1CCCC1)CCC(=O)N2C(C)C 100%

====

Listing: kinase still bound, per cent of control of selected compounds
# Measured On: MAP2K4 (human)
# Assay Comment: KINOMEscan competition binding
# Assay Conditions: compound 10.0 µM
Entry format: amount then unit.

Completed entries (count: 6):
Output measured kinase still bound, per cent of control for this item: Cn1c(=O)n(-c2ccc(C(C)(C)C#N)cc2)c2c3cc(-c4cnc5ccccc5c4)ccc3ncc21 100%

Output measured kinase still bound, per cent of control for this item: C=CC(=O)Nc1cc(NC(=O)c2ccc(C)c(NC(=O)c3ccno3)c2)cc(C(F)(F)F)c1 100%

Output measured kinase still bound, per cent of control for this item: COc1cc(C(=O)NC2CCN(C)CC2)ccc1Nc1ncc2c(n1)N(C1CCCC1)CCC(=O)N2C(C)C 100%

Output measured kinase still bound, per cent of control for this item: O=C(NOC[C@H](O)CO)c1ccc(F)c(F)c1Nc1ccc(I)cc1F 83%

Output measured kinase still bound, per cent of control for this item: CCOc1cc2ncc(C#N)c(Nc3ccc(OCc4ccccn4)c(Cl)c3)c2cc1NC(=O)/C=C/CN(C)C 72%

Output measured kinase still bound, per cent of control for this item: CN(C)C/C=C/C(=O)Nc1cccc(Nc2ncc3c(n2)N(C)c2ccccc2C(=O)N3C)c1 100%

API: the following record is the query input.
Output measured kinase still bound, per cent of control for this item: CCCS(=O)(=O)Nc1ccc(F)c(C(=O)c2c[nH]c3ncc(-c4ccc(Cl)cc4)cc23)c1F 5%

====

# Measured On: TNNI3K (human) (UniProt Q59H18)
# Sequence (Q59H18 whole entry, looked up): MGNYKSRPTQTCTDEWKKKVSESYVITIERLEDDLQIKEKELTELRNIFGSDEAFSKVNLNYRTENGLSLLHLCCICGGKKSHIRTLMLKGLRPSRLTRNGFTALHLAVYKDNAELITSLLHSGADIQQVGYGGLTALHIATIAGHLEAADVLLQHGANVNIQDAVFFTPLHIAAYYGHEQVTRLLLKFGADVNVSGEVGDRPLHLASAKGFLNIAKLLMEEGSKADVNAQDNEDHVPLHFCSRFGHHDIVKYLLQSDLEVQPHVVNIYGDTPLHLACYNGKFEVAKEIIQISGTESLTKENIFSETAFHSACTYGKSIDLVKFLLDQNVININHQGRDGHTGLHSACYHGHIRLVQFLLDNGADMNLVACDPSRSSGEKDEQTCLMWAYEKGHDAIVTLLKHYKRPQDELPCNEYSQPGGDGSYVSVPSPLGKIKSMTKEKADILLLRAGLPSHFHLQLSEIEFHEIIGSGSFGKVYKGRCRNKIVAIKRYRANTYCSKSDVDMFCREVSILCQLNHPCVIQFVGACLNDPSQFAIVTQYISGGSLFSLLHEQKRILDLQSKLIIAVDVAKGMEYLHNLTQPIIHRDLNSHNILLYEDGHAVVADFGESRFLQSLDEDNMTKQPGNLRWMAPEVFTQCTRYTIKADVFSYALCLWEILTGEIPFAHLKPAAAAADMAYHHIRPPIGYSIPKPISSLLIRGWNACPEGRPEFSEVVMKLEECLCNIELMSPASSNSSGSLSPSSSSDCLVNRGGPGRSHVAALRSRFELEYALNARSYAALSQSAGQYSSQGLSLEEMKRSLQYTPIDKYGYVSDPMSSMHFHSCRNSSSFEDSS
# Assay Comment: KINOMEscan competition binding
# Assay Conditions: compound 10.0 µM
Property Label: kinase still bound, per cent of control (%)
Express your answer in %, writing the number without its unit.

Determine reported kinase still bound, per cent of control for Cc1ccc(NC(=O)c2cccc(C(C)(C)C#N)c2)cc1Nc1ccc2ncn(C)c(=O)c2c1 ; test system: TNNI3K (human) (UniProt Q59H18). 15

Determine reported kinase still bound, per cent of control for CCCS(=O)(=O)Nc1ccc(F)c(C(=O)c2c[nH]c3ncc(-c4ccc(Cl)cc4)cc23)c1F ; test system: TNNI3K (human) (UniProt Q59H18). 65

New cases:
Determine reported kinase still bound, per cent of control for C=CC(=O)Nc1cccc(Nc2nc(N[C@H]3CC[C@H](N(C)C)CC3)nc3c2ncn3C(C)C)c1 ; test system: TNNI3K (human) (UniProt Q59H18). 62

Determine reported kinase still bound, per cent of control for N#Cc1c(NC(=O)c2cccc3ccccc23)sc2c1CCCC2 ; test system: TNNI3K (human) (UniProt Q59H18). 52

Determine reported kinase still bound, per cent of control for CCC(=O)N1CCN(c2ccc(-n3c(=O)ccc4cnc5ccc(-c6cnc7ccccc7c6)cc5c43)cc2C(F)(F)F)CC1 ; test system: TNNI3K (human) (UniProt Q59H18). 66

Determine reported kinase still bound, per cent of control for O=C1Nc2ccc(I)cc2/C1=C/c1cc(Br)c(O)c(Br)c1 ; test system: TNNI3K (human) (UniProt Q59H18). 76
